- Test system: P388 leukemia ip, CD2F1 mice, survival T/C
- Method notes: NCI In Vivo Anticancer Drug Screen. Data for tumor model P388 Leukemia (intraperitoneal) in CD2F1 (CDF1) mice
- Run parameters: endpoint: median survival time; dose: 6.25 mg/kg/injection; schedule: Q01DX009 (ip); vehicle: saline with Tween-80; higher = longer survival
Inconclusive results and toxic doses are left out.
Experimental readout: T/C

> print(dat)
                                   molecule                               test.target  experimental.readout  observed.measurement
1  C=C1C(=O)C23[C@H](O)C1CC[C@H]2[C@]12COC3(O)[C@@H](O)[C@@H]1C(C)(C)CC[C@@H]2O  P388 leukemia ip, CD2F1 mice, survival T/C                   T/C      113 % of control
2  CN(C)c1ccc(C2OC3(CCCCC3)C[N+]23CCCC3)cc1 (stereo not drawn)  P388 leukemia ip, CD2F1 mice, survival T/C                   T/C      104 % of control
3  COC(=O)C1=C(C)NC(=O)NC1c1ccc(N(CCCl)CCCl)c(OC)c1 (stereo not drawn)  P388 leukemia ip, CD2F1 mice, survival T/C                   T/C      117 % of control
4  COc1ccc(/C(C#N)=C2\OC(=O)c3ccccc32)cc1OC  P388 leukemia ip, CD2F1 mice, survival T/C                   T/C       97 % of control

Task item: // query T/C value for entry CCCCOP(=O)(O)OCCCC.[U]
Reply: 97 % of control

Task item: // query T/C value for entry COc1cc2c(c(OC)c1OC)-c1ccc(SCc3ccccc3)c(=O)cc1[C@@H](NC(C)=O)CC2
Reply: 105 % of control

Task item: // query T/C value for entry CC1(C)OC2C(CO)OC(n3ccc(=O)[nH]c3=O)C2O1 (stereo not drawn)
Reply: 107 % of control

Task item: // query T/C value for entry NNc1ccc2nccn2n1
Reply: 95 % of control

* * *

- System: P388 leukemia ip, CD2F1 mice, survival T/C
- Method notes: NCI In Vivo Anticancer Drug Screen. Data for tumor model P388 Leukemia (intraperitoneal) in CD2F1 (CDF1) mice
- Run parameters: endpoint: median survival time; dose: 50.0 mg/kg/injection; schedule: Q01DX009 (ip); vehicle: Klucel (hydroxypropylcellulose) (HPC)
Inconclusive results and toxic doses are left out. Rule for the calls: active = survival T/C of 150% or more; inactive = T/C below 125% in these data.
Just give me one of these, please: Yes (active), No (inactive)

Compound	Label
CC[C@]12CCCN3CCc4c(n(c5ccccc45)C(=O)C1)[C@@H]32	No
CC(=O)OC1(C)SCCN1C(N)=O (stereo not given)	No
CC(=O)CC1(O)C(=O)Nc2ccc(Br)cc21 (stereo not given)	No
CN1C(=O)NC(C)(c2cccc(N(CCCl)CCCl)c2)C1=O (stereo not given)	Yes

Task item: Write down the call the test reported for this compound. Item: CC1(Cl)CC2OC3(Br)C=CC(C)(O)C2(CC1Br)C3(C)C (stereo not given)
Reply: No

Task item: Write down the call the test reported for this compound. Item: O=C1c2ccccc2-c2c3c(cc4ccnc1c24)OCO3
Reply: No

Task item: Write down the call the test reported for this compound. Item: CCOC(=O)CC1C(=O)N(c2nc(-c3ccc(Br)cc3)cs2)N=C1C (stereo not given)
Reply: No

Task item: Write down the call the test reported for this compound. Item: CCn1c(=O)[nH]c(=O)c2[nH]c(Cl)nc21
Reply: No

Task item: Write down the call the test reported for this compound. Item: COC(=O)/C(=N\NS(=O)(=O)c1ccc(C)cc1)c1ccccc1
Reply: No

Task item: Write down the call the test reported for this compound. Item: CCCCC(O)/C=C(C)/C=C/C=C/C(=O)N1CCCC1=O (stereo not given)
Reply: No

Task item: Write down the call the test reported for this compound. Item: CSC(/C=N\O)=N/O
Reply: No

Task item: Write down the call the test reported for this compound. Item: Cc1ccc(S(=O)(=O)C2(Sc3ccccc3)SC2C(=O)c2ccccc2)cc1 (stereo not given)
Reply: No
